Data provenance is ChEMBL document CHEMBL4602703.

PROTOCOL DETAILS: Protein binding in human plasma by LC-MS analysis based ultracentrifugation assay
Format: ADME, cell-free
STUDY CONDITIONS: read-out: PPB (converted)
QUANTITY KIND: fraction unbound

[[record]]
smiles_code = "Cc1c(Cc2ccc(C(F)(F)F)nc2)c[nH]c1C(=O)NC1CC1"
meas_value = 0.1


====

System: HepG2
PROTOCOL DETAILS: Cytotoxicity against human HepG2 cells assessed as reduction in cell viability
Format: cell-based
QUANTITY KIND: CC50

[[record]]
smiles_code = "Cc1cc(Nc2ccc(S(F)(F)(F)(F)F)cc2)n2nc(C(C)(F)F)nc2n1"
system_under_test = "HepG2"
meas_value = "> 50 µM"

[[record]]
smiles_code = "Cc1c(Cc2ccc(C(F)(F)F)nc2)c[nH]c1C(=O)NC1CC1"
system_under_test = "HepG2"
meas_value = "> 50 µM"

